Reference source for all entries: paper PMC7692337

assay: P-glycoprotein assay, line overexpressing P-gp
Assay type: cell-based, human
test conditions: human, with verapamil (concentration not stated); 48 h exposure, with verapamil; read-out: GI50 SW1573/PGP w Verapamil
observation type: GI50 at 48 h

Below, 4 compounds whose answers are already recorded.
compound="c1ccc(C[Se]CCc2ccc3c(c2)OCO3)cc1 [Compound 38]" measured_result="25 µM"
compound="c1cc2c(cc1CC[Se][Se]CCc1ccc3c(c1)OCO3)OCO2 [Compound 40]" measured_result="4.5 µM"
compound="c1cc2c(cc1C[Se][Se]Cc1ccc3c(c1)OCO3)OCO2 [Compound 39]" measured_result="5.1 µM"
compound="N#C[Se]CCc1ccc2c(c1)OCO2 [Compound 36]" measured_result="5.3 µM"

Let's switch to this compound now.
Can you share its GI50 at 48 h? I mean this compound: O=C(CC[Se][Se]CCC(=O)NCCc1ccc(O)c(O)c1)NCCc1ccc(O)c(O)c1 [Compound 15] 5.3 µM
